# Test system: INS-1 cells
# Protocol text: Cell viability assay: INS-1 β-cells co-treated with compound and tunicamycin (Tm), CellTiter-Glo intracellular ATP
# Type: cell-based, rat
# Conditions used: Rattus norvegicus, INS1, 72 h, % rescue from Tm (0.15 μg/mL)-induced reduction of INS-1 cell viability, intracellular ATP, 72 h; Tm alone = 0%, DMSO control without Tm = 100%; read-out: Max Activity (%)
Each record here notes measured Emax.

COc1cc(CNC(=O)CNC(=O)c2cccc(O)c2)ccc1O [Compound 5n] = 30%
COc1ccc(CNC(=O)CNC(=O)c2cccc(Cl)c2C)cc1 [Compound 5d] = 41 to 55%
Cc1c(Cl)cccc1C(=O)NCC(=O)NCCc1ccc(O)cc1 [Compound 5f] = 41 to 55%

Moving on to the next compound.
**Q:** Emax lookup needed for Cc1c(Cl)cccc1C(=O)NCC(=O)NCc1ccc(S(N)(=O)=O)cc1 [Compound 5e] , thanks.
**A:** 41 to 55%
